// data source = PubChem BioAssay (NCI)

Tested on: ACHN renal
Experiment: NCI-60 one-dose screen, 48 h (100 = growth as untreated, 0 = no growth, -100 = all killed)
Conditions: 10 µM
About 83,000 compounds went through this panel and 20% of them were active in at least one assay; those are over-represented in the sample as a whole.
// values below are reported growth
Expressed in %, but write only the number.

Cc1nc2ccccc2c(N)c1-c1cc(C)c2c(C)nc3ccccc3c2n1	-92.4

Notebook entry, ACHN renal assay: growth of Clc1ccc(Nc2ccnc(NCCNc3ccnc4cc(Cl)ccc34)n2)cc1 = ?
-7.16

Notebook entry, ACHN renal assay: growth of Cc1cn(C2CCCCO2)c(=O)nc1NO (stereo unspecified) = ?
110

Notebook entry, ACHN renal assay: growth of CCOC(=O)N1C/C(=C/c2ccc(F)cc2)C(=O)/C(=C/c2ccc(F)cc2)C1 = ?
-28

Notebook entry, ACHN renal assay: growth of COc1ccc(NC2=NC(C)(CO)CS2)cc1 (stereo unspecified) = ?
96.7

Notebook entry, ACHN renal assay: growth of O=C(Nc1ccncc1)C(=O)c1cn(S(=O)(=O)c2cccc(Cl)c2)c2ccccc12 = ?
82.8
